tested on: BT-549 breast; experiment: NCI tumour cell line growth inhibition, 48 h; in the data active = GI50 below about 0.43 µM; inactive = the rest
Labels: active, inactive

- compound: "CN1CCC2(CC1)C(=O)Nc1cc(NC(=O)c3ccc4c(c3)C[C@@H]3C(C)(C)[C@H](O)[C@H](F)C[C@@]3(C)O4)ccc12"
  label_value: "active"
- compound: "Cc1ccc(NC(=O)c2ccoc2)cc1-c1ccc(C(=O)NCC2CC2)cc1"
  label_value: "inactive"
- compound: "CCCCCCCCCCCC(c1ccccc1)[N+](C)(C)C (stereo unspecified)"
  label_value: "inactive"
- compound: "COc1ccc2c(c1)c(-c1ccc(-c3cn(C)c4ccc(OC)cc34)s1)cn2C"
  label_value: "inactive"
- compound: "COc1cc2c(cc1OCCCCCOc1ccc(-c3nc4ccccc4s3)cc1)N=C[C@@H]1CCCN1C2=O"
  label_value: "inactive"
- compound: "CCn1c(-c2nonc2N)nc2cnc(Oc3cccc(NC(=O)c4ccc(OCCN5CCOCC5)cc4)c3)cc21"
  label_value: "inactive"
- compound: "Cc1cc2c(cc1Cl)SC(=Nc1ccc(Cl)cc1)N(S(=O)(=O)c1ccc(Br)s1)S2(=O)=O"
  label_value: "inactive"
- compound: "O=C(Nc1ccccc1/C=C/c1n[nH]c2ccccc12)c1ccccc1"
  label_value: "inactive"
- compound: "CCOC(=O)c1sc2nc(=S)[nH]c(NC(N)=S)c2c1C"
  label_value: "inactive"
- compound: "N#CSc1c[nH]c2ccc(/C=C/C(=O)/C=C(O)/C=C/c3ccc4[nH]cc(SC#N)c4c3)cc12"
  label_value: "inactive"
- compound: "O=C(O)CN(CCN(CC(=O)O)CC(=O)O)CCN(CC(=O)O)CC(=O)O"
  label_value: "inactive"
- compound: "CN(C)CCN1C(=O)c2cccc3cc(N)cc(c23)C1=O"
  label_value: "inactive"
- compound: "[Cu].c1ccc2c(c1)C1=NC2=NC2=NC(=NC3=NC(=NC4=NC(=N1)c1ccccc14)c1ccccc13)c1ccccc12"
  label_value: "inactive"
- compound: "CCOc1cc(/C=C/C(=O)CC(=O)/C=C/c2ccc(OC(=O)CNc3nc4ccc(OC)cc4s3)c(OCC)c2)ccc1OC(=O)CNc1nc2ccc(OC)cc2s1"
  label_value: "inactive"
- compound: "C=C(C)[C@@H]1CC[C@]2(C(=O)OC)CC[C@]3(C)[C@H](CC[C@@H]4[C@@](C)(CCc5nn[nH]n5)[C@H](C(=C)C)CC[C@]43C)[C@@H]12"
  label_value: "inactive"
- compound: "O=c1[nH]c(=O)n(Cc2ccc(C34CC5CC(CC(C5)C3)C4)c(O)c2)cc1F"
  label_value: "inactive"

---

test system: NCI-H226 lung; assay: NCI tumour cell line growth inhibition, 48 h
assay_metric: TGI (µM)

- query_smiles: "CCOc1cc(/C=C/C(=O)CC(=O)/C=C/c2ccc(OC(=O)CNc3nc4ccc(OC)cc4s3)c(OCC)c2)ccc1OC(=O)CNc1nc2ccc(OC)cc2s1"
  unit_of_measurement: "µM"
  censoring_qualifier: "="
  assay_result: 34.1
- query_smiles: "CCOC(=O)c1nc(SC)sc1NC(=O)c1ccc(OC)cc1"
  unit_of_measurement: "µM"
  censoring_qualifier: ">"
  assay_result: 100
- query_smiles: "CCOC(=O)c1ccc(N2C(=O)/C(=C/c3ccc(N(CCC#N)CCC#N)cc3)N=C2c2cc([N+](=O)[O-])ccc2Cl)cc1"
  unit_of_measurement: "µM"
  censoring_qualifier: ">"
  assay_result: 100
- query_smiles: "O=C(Nc1ccccc1/C=C/c1n[nH]c2ccccc12)c1ccccc1"
  unit_of_measurement: "µM"
  censoring_qualifier: "="
  assay_result: 11.5
- query_smiles: "CCC(=O)N1C(=S)SC[C@H]1C(=O)OC"
  unit_of_measurement: "µM"
  censoring_qualifier: ">"
  assay_result: 100
- query_smiles: "CCOC(=O)Cn1nnc2ccc(Nc3nc4ccccc4nc3C(=O)OCC)cc21"
  unit_of_measurement: "µM"
  censoring_qualifier: ">"
  assay_result: 100
- query_smiles: "CCOC(=O)CCCN"
  unit_of_measurement: "µM"
  censoring_qualifier: ">"
  assay_result: 100
- query_smiles: "c1ccc(C/C(=N\\Nc2nc3ccccc3[nH]2)c2ccccn2)cc1"
  unit_of_measurement: "µM"
  censoring_qualifier: "="
  assay_result: 0.295
- query_smiles: "Nc1nc(N)c2cc(-c3cc4ccccc4[nH]3)ccc2n1"
  unit_of_measurement: "µM"
  censoring_qualifier: "="
  assay_result: 93.7
- query_smiles: "O=c1[nH]c(=O)n(Cc2ccc(C34CC5CC(CC(C5)C3)C4)c(O)c2)cc1F"
  unit_of_measurement: "µM"
  censoring_qualifier: "="
  assay_result: 32.6

---

# reported GI50; entries follow
test system: A498 renal; test: NCI tumour cell line growth inhibition, 48 h

- query_smiles: "C=CCn1c(SCC(=O)Nc2ccc(C(=O)/C=C/c3cc(OC)c(OC)c(OC)c3)cc2)nnc1-c1cc(OC)c(OC)c(OC)c1"
  GI50: "7.4 µM"
- query_smiles: "COc1ccc2c(c1)c(-c1ccc(-c3cn(C)c4ccc(OC)cc34)s1)cn2C"
  GI50: "> 100 µM"
- query_smiles: "COc1ccc(-c2nn3ncccc3c2-c2ccnc(Nc3ccc(F)c(F)c3)n2)cc1"
  GI50: "3.96 µM"
- query_smiles: "COc1cc2c(cc1OCCCCCOc1ccc(-c3nc4ccccc4s3)cc1)N=C[C@@H]1CCCN1C2=O"
  GI50: "5.29 µM"
- query_smiles: "Oc1ccc(CCNc2nc3ccccc3c3[nH]c4ccccc4c23)cc1O"
  GI50: "13.6 µM"
- query_smiles: "CCOc1cc(/C=C/C(=O)CC(=O)/C=C/c2ccc(OC(=O)CNc3nc4ccc(OC)cc4s3)c(OCC)c2)ccc1OC(=O)CNc1nc2ccc(OC)cc2s1"
  GI50: "13.4 µM"
- query_smiles: "COc1cc(-c2csc(NC(=O)Nc3ccc(Cl)cc3)n2)cc(OC)c1OC"
  GI50: "2.24 µM"
- query_smiles: "COCCn1c(Nc2ccc(C(=O)NO)cc2)nc2ccccc21"
  GI50: "2.64 µM"
- query_smiles: "CCn1c(-c2nonc2N)nc2cnc(Oc3cccc(NC(=O)c4ccc(OCCN5CCOCC5)cc4)c3)cc21"
  GI50: "1.05 µM"

---

# reported TGI; entries follow
test system: DMS 114 small cell lung; test: NCI tumour cell line growth inhibition, 48 h

- query_smiles: "CN(C)CCN1C(=O)c2cccc3cc(N)cc(c23)C1=O"
  TGI: "12.7 µM"
- query_smiles: "O=c1cc(-c2cccc(Cl)c2)[nH]c2cc3c(cc12)OCO3"
  TGI: "4.23 µM"
- query_smiles: "O=C1c2ccccc2C(=O)N1C/C=N/NS(=O)(=O)c1cccc([N+](=O)[O-])c1"
  TGI: "> 100 µM"
- query_smiles: "CCC(=O)N1C(=S)SC[C@H]1C(=O)OC"
  TGI: "> 100 µM"
- query_smiles: "CCOC(=O)c1ccc(N2C(=O)/C(=C/c3ccc(N(CCC#N)CCC#N)cc3)N=C2c2cc([N+](=O)[O-])ccc2Cl)cc1"
  TGI: "> 100 µM"
- query_smiles: "Cc1c2ccccc2c(=O)n2c(-c3ccccn3)cccc12"
  TGI: "> 100 µM"

---

tested on: OVCAR-3 ovarian; test: NCI tumour cell line growth inhibition, 48 h
Binary call on TGI: true from 20 µM upward, false beneath that.

- compound: "COc1cc2c(cc1OCCCCCOc1ccc(-c3nc4ccccc4s3)cc1)N=C[C@@H]1CCCN1C2=O"
  label_value: "true"
- compound: "Cc1ccc(S(=O)(=O)N(CC(O)COc2ccccc2)c2c(F)c(F)c(F)c(F)c2F)cc1 (configuration not stated)"
  label_value: "true"
- compound: "CN1CCN(c2cc(F)c(NC3=C(Cl)C(=O)c4ncccc4C3=O)c(F)c2)CC1"
  label_value: "false"
- compound: "COC(=O)/C(=C(/C)c1ccco1)P(=O)(OC)OC"
  label_value: "true"
- compound: "CCCCOC(=O)Nc1ccc(S(=O)(=O)Nc2c(Cl)cccc2Cl)cc1"
  label_value: "true"
- compound: "CC1(N2CCOCC2)CC2C(=[N+]1[O-])CCC/C2=N/O (configuration not stated)"
  label_value: "true"
- compound: "CCCCCCCCCCCC(c1ccccc1)[N+](C)(C)C (configuration not stated)"
  label_value: "false"
- compound: "Cc1ccc(N=NC(=Nc2ccc(F)cc2)c2ccc(N(CCC#N)CCC#N)cc2)cc1"
  label_value: "true"
- compound: "C[C@]12CC[C@H]3[C@@H](CC=C4C[C@@H](N5CCCC5)CC[C@@]43C)[C@@H]1C/C(=C\\c1ccc([N+](=O)[O-])cc1)[C@@H]2O"
  label_value: "true"
- compound: "COc1ccc(-c2cc(=O)c3c(C)ccnc3[nH]2)cc1"
  label_value: "true"
- compound: "CCOC(=O)N1CCC2(CC1)C[C@](Sc1ccccc1)(C(C)=O)[C@H](C)O2"
  label_value: "true"
- compound: "CN1CCN(c2ccc3nc(-c4[nH]ncc4Nc4ncnc5[nH]ccc45)[nH]c3c2)CC1"
  label_value: "false"
- compound: "CCOC(=O)c1ccc(-c2onc(C)c2Br)[nH]1"
  label_value: "true"
- compound: "CC(C)(C)c1ccc(O)c(C(O)c2ccccn2)c1 (configuration not stated)"
  label_value: "true"
- compound: "O=c1[nH]c(=O)n(Cc2ccc(C34CC5CC(CC(C5)C3)C4)c(O)c2)cc1F"
  label_value: "false"
- compound: "O=C(CN1CCCCC1)c1ccc2[nH]c(=O)oc2c1"
  label_value: "true"
- compound: "Cc1ccc(NC(=O)c2ccoc2)cc1-c1ccc(C(=O)NCC2CC2)cc1"
  label_value: "true"
